The measured values listed here are drawn from ChEMBL document CHEMBL4513216.

- Test system: Plasmodium falciparum
- assay summary: Screen against P. falciparum Asexual Blood Stage (ABS), at 5uM
- Type: functional, Dd2
- experimental conditions: tested at 5 uM
Hit rate of the full screen: of about 65,000 compounds, about 2,100 (3.2%) showed an effect of 50% or more. The median lay at about -52%. The entries come from a sample that favours strong results as a whole.
// classify: if (INHIBITION < -20%) fulfilled else not fulfilled

1. Fc1ccccc1CC1CCN(Cc2ccccn2)CC1
not fulfilled
2. Oc1cc(C2CCCCN2Cc2cccs2)nc(-c2ccccn2)n1 (centres undefined)
not fulfilled
3. CCOCC(O)CN1CCN(C(=O)Cc2ccc3c(c2)CCC3)CC1 (centres undefined)
not fulfilled
4. CCc1nc(CC(=O)N2CCCC2CN2CCCC2)cs1 (centres undefined)
fulfilled
5. O=C(C1CC=CC1)N1CCC2(CC1)CNCCO2
fulfilled
6. CN1CCN(c2ccccc2CNC(=O)Cc2ccccc2F)CC1
not fulfilled
7. CN1CCN(c2ccccc2CNC(=O)Cc2cccc(F)c2)CC1
not fulfilled
8. CN(C)C(=O)COC[C@@]12CCC[C@@H]1CNC2
fulfilled
9. c1ccc(COC[C@H]2CC[C@H]3[C@H](CCN3Cc3cccs3)O2)nc1
fulfilled
10. CC(C)(C)c1cn(C[C@H]2CC3CCN2C[C@@H]3C(=O)N2CCOCC2)nn1 (some centres undefined)
fulfilled
11. Cc1cccc(CN2CCC(Cc3ccccc3F)CC2)n1
not fulfilled
12. CN(C)C[C@H]1C[C@@H]2CN(Cc3ccoc3)C[C@@H]2O1
not fulfilled
13. Cc1ccc(CC(=O)N2CCN(CC(O)C(C)(C)C)CC2)cn1 (centres undefined)
fulfilled
14. C[C@@H]1C[C@@H]2CCN(Cc3ccccn3)C[C@H]2O1
fulfilled
